Tested on: HeLa
Test: Antiproliferative activity against human HeLa cells incubated for 24 hrs by MTT assay
Format: functional, cell-based
IC50 reference
value-type: IC50 (µM)

INSERT INTO measurements (line_notation, target_entity, value_type, operator, quantitative_result) VALUES
  ('CC1(C)/C=C/C(=O)[C@@]2(C)O[C@H]2CCC2=C[C@@H]1OC2=O', 'HeLa', 'IC50', '=', 4.78),
  ('C/C1=C\CCC2=C[C@H](OC2=O)C(C)(C)/C=C/C1=O', 'HeLa', 'IC50', '=', 8.64),
  ('C/C1=C/CCC23C(=O)O[C@H]4[C@@H]2[C@@H](C1=O)[C@@H]3C4(C)C', 'HeLa', 'IC50', '>', 10);
